Hello, the source for this data is ChEMBL document CHEMBL1123274, in case you need it.

# tested system: Steroid 5-alpha-reductase (Rattus norvegicus, UniProt P24008+P31214)
# Sequence (P24008 whole entry): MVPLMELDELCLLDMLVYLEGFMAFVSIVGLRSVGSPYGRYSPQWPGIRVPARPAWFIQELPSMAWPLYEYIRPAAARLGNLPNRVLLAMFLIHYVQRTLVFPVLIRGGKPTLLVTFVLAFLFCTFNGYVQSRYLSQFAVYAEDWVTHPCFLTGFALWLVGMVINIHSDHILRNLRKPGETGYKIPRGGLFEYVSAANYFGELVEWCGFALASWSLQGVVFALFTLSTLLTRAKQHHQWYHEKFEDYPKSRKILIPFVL
# Sequence (P31214 whole entry): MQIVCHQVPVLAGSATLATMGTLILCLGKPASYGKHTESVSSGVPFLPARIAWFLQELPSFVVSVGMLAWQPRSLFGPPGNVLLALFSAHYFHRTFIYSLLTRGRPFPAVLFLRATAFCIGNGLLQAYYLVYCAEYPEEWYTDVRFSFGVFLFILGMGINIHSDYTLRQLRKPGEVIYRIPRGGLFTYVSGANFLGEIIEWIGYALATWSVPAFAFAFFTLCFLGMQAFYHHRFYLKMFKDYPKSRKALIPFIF
# measurement protocol: Apparent inhibitory constant value for rat prostatic steroid 5-alpha reductase was determined
# Type: protein assay
# label = MET if Ki app < 10 nM else NOT MET

> print(dat)
                                   molecule  label.value
1  CC(O)[C@@]1(O)CC[C@H]2[C@@H]3CCC4N(C)C(=O)CC[C@]4(C)[C@H]3CC[C@@]21C (stereo not given in full)          MET
2  CCN(CC)C(=O)[C@H]1CC[C@H]2[C@@H]3CC[C@@H]4NC(=O)CC[C@]4(C)[C@H]3CC[C@]12C (stereo in doubt; 9x)      NOT MET
3  CC(C(=O)[O-])[C@H]1CC[C@H]2[C@@H]3CCC4N(C)C(=O)CC[C@]4(C)[C@H]3CC[C@]12C.[Na+] (stereo not given in full)          MET
4  CN1C(=O)CC[C@@]2(C)C1CC[C@@H]1[C@@H]2CC[C@@]2(C)[C@H]1CC[C@@]21CCCO1 (stereo not given in full)      NOT MET
5  CC(C)N(C(=O)[C@H]1CC[C@H]2[C@@H]3CCC4NC(=O)CC[C@]4(C)[C@H]3CC[C@]12C)C(C)C (stereo not given in full)      NOT MET
